Reference source for all entries: ChEMBL document CHEMBL4680157

# Assay Name: Cytotoxicity against human HEK293 cells assessed as cell growth inhibition at 10 uM after 48 hrs relative to control
# Format: cell-based
Measurement Type: inhibition at 48 h, 10 µM

CC(=O)Nc1ccc(Cc2c(C)cc(OCC(=O)O)cc2C)cc1C(C)C: < 50%
Cc1cc(OCCN)cc(C)c1Cc1ccc(O)cc1: < 50%
CC(=O)Nc1ccc(Cc2ccc(OCC(=O)O)cc2)cc1C(C)C: < 50%

# input Please report the measured inhibition at 48 h, 10 µM for "CCNc1ccc(Cc2c(C)cc(OCC(=O)O)cc2C)cc1C(C)C"
# output < 50%

# input Please report the measured inhibition at 48 h, 10 µM for "Cc1cc(OCC(=O)O)cc(C)c1Cc1ccc(O)cc1"
# output < 50%
